test system: cancer cell lines; assay: Cancer cell proliferation activity (CellTiterGlo, 72 h); type: cell-based; conditions: Homo sapiens, ACHN, 72 h, ACHN (kidney), 72 h; read-out: IC50 cell proliferation
endpoint: IC50 (µM)

Examples with answers:
Nc1nc(F)nc2c1ncn2[C@H]1C[C@H](O)[C@](CO)(C2CC2)O1 [Cpd. No. 5]    3.67
N#C[C@]1(CO)O[C@@H](n2cc(F)c(=O)[nH]c2=O)C[C@@H]1O [Cpd. No. 107]    3.84

P = C[C@]1(CO)O[C@@H](n2cnc3c(O)nc(N)nc32)C[C@@H]1O [Cpd. No. 115]
Q = O=c1[nH]c(=O)n([C@H]2C[C@H](O)[C@@H](CO)O2)cc1F [compound 185]
[Q] I'd appreciate it if you could identify which of P and Q has the greater IC50. Field: selected label. Fill in the label of the entry you choose.
[A] P
(P: 2.81 µM, Q: 0.004 µM)

###

test system: cancer cell lines; experiment: Cancer cell proliferation activity (CellTiterGlo, 72 h); type: cell-based; conditions: Homo sapiens, SF-295, 72 h, SF295 cell line (brain), 72 h; read-out: IC50
pIC50: −log10 of the molar value.
# pIC50 annotations

Worked cases, pIC50 given:
C[C@]1(CO)O[C@@H](n2cc(F)c(N)nc2=O)C[C@@H]1O [Cpd. No. 4]    5.41
Cc1cn([C@H]2C[C@H](O)[C@@](C#N)(CO)O2)c(=O)[nH]c1=O [Cpd. No. 123]    < 4.30
CC[C@]1(CO)O[C@@H](n2cnc3c(N)nc(F)nc32)C[C@@H]1O [Cpd. No. 1]    5.85
N#C[C@]1(CO)O[C@@H](n2cc(F)c(N)nc2=O)C[C@@H]1O [Cpd. No. 6]    < 4.30
Nc1nc(F)nc2c1ncn2[C@H]1C[C@H](O)[C@](CO)(CF)O1 [compound 150]    < 4.30

[Q] # query: pIC50 of entry C=C[C@]1(CO)O[C@@H](Nc2[nH]c(=O)ncc2Br)C[C@@H]1O [Cpd. No. 3]
[A] < 4.30

[Q] Look up pIC50 for this compound: Nc1ccn([C@@H]2O[C@H](CO)[C@@H](O)C2(F)F)c(=O)n1 [gemcitabine, reference compound]
[A] 8.48

[Q] Endpoint output: pIC50 of CC[C@]1(CO)O[C@@H](n2cc(F)c(N)nc2=O)C[C@@H]1O [Cpd. No. 2] . Value?
[A] < 4.30

###

Test system: cancer cell lines
Test: Cancer cell proliferation activity (CellTiterGlo, 72 h)
Type: cell-based
Settings: Homo sapiens, SNB-75, 72 h, SNB75 (brain), 72 h; read-out: IC50 cell proliferation
Method: Dose response relationships on cell proliferation was assessed for representative Compounds of the Disclosure on cancer cell lines. […] Cells were cultured in the appropriate media. […] After incubation for 72 h at 37° C. at 5% or 10% CO2 dependent on the medium, cell plates were equilibrated to room temperature for one hour, CellTiterGlo reagent (Promega) was added and luminescence was measured approximately an hour later using a luminometer. […]
endpoint: IC50 (nM)

Nc1nc(F)nc2c1ncn2[C@@H]1O[C@H](CO)[C@@H](O)[C@H]1O    100

I = Nc1ccn([C@H]2C[C@H](O)[C@](CO)(CF)O2)c(=O)n1
II = C[C@]1(CO)O[C@@H](n2ccc(N)nc2=O)[C@@H](O)[C@@H]1O
[Q] Exercise: compare I and II ; which one has the greater IC50? Output the label that corresponds to your choice.
[A] II
(II: 4460 nM, I: 550 nM)
